Assay Overview: Determination of the solubility (24 h shaking at room temperature, ultracentrifugation, HPLC)
Assay type: physicochemical
Condition: aqueous buffer, thermodynamic from solid, dilute hydrochloric acid (pH 4)
Structures can show the parent of a compound that is named as a salt.
Reported Endpoint: solubility at 24 h (µg/mL)

Molecule	Reported Endpoint	Measured Result
N#Cc1c(N)nc(SCc2csc(-c3ccc(Cl)cc3)n2)c(C#N)c1-c1ccc(OCCOC(=O)[C@@H](N)CO)cc1 [Example 11, hydrochloride]	solubility at 24 h	70
CS(=O)(=O)O.N#Cc1c(N)nc(SCc2csc(-c3ccc(Cl)cc3)n2)c(C#N)c1-c1ccc(OCCOC(=O)[C@@H](N)Cc2ccccc2)cc1	solubility at 24 h	60
N#Cc1c(N)nc(SCc2csc(-c3ccc(Cl)cc3)n2)c(C#N)c1-c1ccc(OCCOC(=O)CCC(=O)O)cc1 [Example 19, hydrochloride]	solubility at 24 h	57

(A) Cc1ccc(S(=O)(=O)[O-])cc1.N#Cc1c(N)nc(SCc2csc(-c3ccc(Cl)cc3)n2)c(C#N)c1-c1ccc(OCCOC(=O)[C@@H]2CCC[NH2+]2)cc1
(B) N#Cc1c(N)nc(SCc2csc(-c3ccc(Cl)cc3)n2)c(C#N)c1-c1ccc(OCCOC(=O)CN)cc1 [Example 6, dihydrochloride]
(C) N#Cc1c(N)nc(SCc2csc(-c3ccc(Cl)cc3)n2)c(C#N)c1-c1ccc(OCCOC(=O)[C@@H]2CCCN2)cc1 [Example 9, hydrochloride]
(D) CN(C)CC(=O)OCCOc1ccc(-c2c(C#N)c(N)nc(SCc3csc(-c4ccc(Cl)cc4)n3)c2C#N)cc1
Input: rank_up(items): orders items by reported solubility at 24 h in ascending numerical order. Use the labels to give the requested order.
Output: A, C, B, D

###

Assay Overview: Determination of the solubility (24 h shaking at room temperature, ultracentrifugation, HPLC)
Assay type: physicochemical
Condition: saline or isotonic, thermodynamic from solid, 5% strength aqueous dextrose solution
Counter-ions that a name gives are not always drawn.
Reported Endpoint: solubility at 24 h (µg/mL)

Compound	solubility at 24 h [µg/mL]
N#Cc1c(N)nc(SCc2csc(-c3ccc(Cl)cc3)n2)c(C#N)c1-c1ccc(OCCOC(=O)[C@@H](N)Cc2c[nH]cn2)cc1 [Example 33, dihydrochloride]	195

(a) CC(C)[C@H](N)C(=O)OCCOc1ccc(-c2c(C#N)c(NC(=O)CCCN(C)C)nc(SCc3csc(-c4ccc(Cl)cc4)n3)c2C#N)cc1
(b) N#Cc1c(N)nc(SCc2csc(-c3ccc(Cl)cc3)n2)c(C#N)c1-c1ccc(OCCOC(=O)/C=C\C(=O)O)cc1
Input: // which entry has the larger solubility at 24 h value, a or b ? Select an item and report its label.
Output: a
(a: 160 µg/mL, b: 4 µg/mL)

###

Assay Overview: Stability in buffer at various pH values
Type: physicochemical
Condition: pH 7.4, 37° C., 4 h
Where a name gives a salt, the structure may show the parent alone.
Reported Endpoint: % test substance after 4 h [F(t = 4 h) × 100/F(t = 0 h)] (%)

Molecule	Unit Descriptor	Measured Result
N#Cc1c(N)nc(SCc2csc(-c3ccc(Cl)cc3)n2)c(C#N)c1-c1ccc(OCCOC(=O)[C@H](N)CCCN)cc1 [Example 39, dihydrochloride]	%	0

(1) N#Cc1c(N)nc(SCc2csc(-c3ccc(Cl)cc3)n2)c(C#N)c1-c1ccc(OCCOC(=O)CCC(=O)O)cc1
(2) N#Cc1c(N)nc(SCc2csc(-c3ccc(Cl)cc3)n2)c(C#N)c1-c1ccc(OCCOC(=O)[C@@H](N)CCCN)cc1 [Example 22, dihydrochloride]
Input: // which entry has the larger % test substance after 4 h [F(t = 4 h) × 100/F(t = 0 h)] value, 1 or 2 ? Select an item and report its label.
Output: 1
(1: 100%, 2: 0%)

All figures here come from patent US20120122820A1.
